Attribution: PubChem BioAssay (Tox21)

# experiment: qHTS assay to identify small molecule HDAC inhibitors - cell viability counter screen (AID 1259365); note: nearly all actives have a fitted effect of over 50% in size
# particulars: HCT-116 viability, CellTiter-Glo ATP luminescence, 2 h; series mostly up to 92.4 µM
Activity calls are given as the source filed them. Calls come from the whole dose curve; as a rule, active = well fitted cell-killing curve with a large enough effect in the repeat runs; inconclusive = weak or mixed curves, or effect the other way; inactive = flat fitted curve, though single readings scatter.
Write down one outcome, taken from active, inactive

Answered examples (6):
CC1(C)[C@@H](OC(=O)CCC(=O)O)CC[C@]2(C)[C@H]3C(=O)C=C4[C@@H]5C[C@@](C)(C(=O)O)CC[C@]5(C)CC[C@@]4(C)[C@]3(C)CC[C@@H]12
inactive
O=[N+]([O-])c1ccc(O/N=C/c2cc(Br)c(O)c(Br)c2)c([N+](=O)[O-])c1
inactive
C[C@H]1C[C@H](O)c2ccsc2S1(=O)=O
inactive
CC(=O)OCCN(CCOC(C)=O)c1ccc(N=Nc2ccc([N+](=O)[O-])cc2C#N)cc1
active
O=C=Nc1cccc(C(F)(F)F)c1
inactive
O=C(Cn1ccnc1[N+](=O)[O-])NCCO
inactive

Q: What did this assay record as the result for CCOC(=O)OC(C)OC(=O)[C@@H]1N2C(=O)[C@@H](NC(=O)[C@H](N)c3ccccc3)[C@H]2SC1(C)C (stereo partly drawn) ?
A: inactive

Q: What did this assay record as the result for "COC(=O)CS" ?
A: inactive

Q: What did this assay record as the result for "CC(=O)OCC[N+](C)(C)C" ?
A: inactive

Q: What did this assay record as the result for "NC(=O)c1ccncc1" ?
A: inactive

Q: What did this assay record as the result for "CN1C(=O)c2ccccc2C1=O" ?
A: inactive

Q: What did this assay record as the result for "O=C1c2ccccc2C(=O)c2c(O)c(O)cc(O)c21" ?
A: inactive

Q: What did this assay record as the result for C=CC(=O)OCC1CC2CC1C1CCC(COC(=O)C=C)C21 (stereo not drawn) ?
A: inactive

Q: What did this assay record as the result for "CCCCN(CCN(CCCC)C(=O)N1CCOCC1)C(=O)N1CCOCC1" ?
A: inactive

Q: What did this assay record as the result for "C[C@]12CC[C@@H]3c4ccc(O)cc4CC[C@H]3[C@@H]1CC[C@@H]2OC(=O)CCC1CCCC1" ?
A: inactive

Q: What did this assay record as the result for "CC(C)c1nc(CN(C)C(=O)N[C@H](C(=O)N[C@@H](Cc2ccccc2)C[C@H](O)[C@H](Cc2ccccc2)NC(=O)OCc2cncs2)C(C)C)cs1" ?
A: inactive

Q: What did this assay record as the result for "NNC(=O)CP(=O)(c1ccccc1)c1ccccc1" ?
A: inactive

Q: What did this assay record as the result for Cc1cc2c(OCC(CNC(C)(C)C)OC(=O)c3ccccc3)cccc2[nH]1 (stereo not drawn) ?
A: inactive

Q: What did this assay record as the result for CC(O)c1ccccc1 (stereo not drawn) ?
A: inactive

Q: What did this assay record as the result for CCC1CO1 (stereo not drawn) ?
A: inactive

Q: What did this assay record as the result for CC(C)COCC(CN(Cc1ccccc1)c1ccccc1)N1CCCC1 (stereo not drawn) ?
A: inactive

Q: What did this assay record as the result for "CC/C=C1/OC(=O)c2ccccc21" ?
A: inactive

Q: What did this assay record as the result for "CCOC(=O)c1ccc(I)cc1" ?
A: inactive

* * *

# experiment: qHTS assay to identify small molecule agonists of the AP-1 signaling pathway (AID 1159526); note: % is set by controls: 0 for no effect and ±100 for the full control effect
# particulars: ME-180 (cervical carcinoma) AP-1-bla reporter, beta-lactamase FRET ratio, 5 h; series mostly up to 76.8 µM
Results filed as inconclusive are left out. The source made the active and inactive calls. Calls follow the shape of the full dose curve.
Write down one outcome, taken from 1 (yes) for active, 0 (no) for inactive

Cc1cc(C)c(N)cc1C
0 (no)
C=C/C(C)=C/C/C=C(\C)CCC=C(C)C
0 (no)

Q: What did this assay record as the result for Cc1cc2c(OCC(CNC(C)(C)C)OC(=O)c3ccccc3)cccc2[nH]1 (stereo not given) ?
A: 0 (no)

Q: What did this assay record as the result for "OCCOCC#CCOCCO" ?
A: 0 (no)

Q: What did this assay record as the result for "CC(C)=CCC/C(C)=C/CC/C(C)=C/C(=O)OCC(=O)[C@@]1(O)CC[C@H]2[C@@H]3CCC4=CC(=O)C=C[C@]4(C)[C@H]3[C@@H](O)C[C@@]21C" ?
A: 0 (no)

Q: What did this assay record as the result for "O=C=Nc1cccc(C(F)(F)F)c1" ?
A: 0 (no)

Q: What did this assay record as the result for "CCOc1ccc(Cc2nccc3cc(OCC)c(OCC)cc23)cc1OCC" ?
A: 0 (no)

* * *

# assayed.target: Nuclear receptor subfamily 1 group I member 2 (Homo sapiens) (UniProt O75469)
# experiment: CYP3A4 induction through human pregnane X receptor (PXR) by small molecules, qHTS assay (AID 1346984); note: nearly all actives have a fitted effect of over 40% in size; for activation: % is set by controls: 0 for no effect and ±100 for the full control effect
# particulars: DPX-2 HepG2 PXR, CYP3A4-luciferin luminescence, 24 h; series mostly up to 46.1 µM
Records with an inconclusive call do not appear. Calls of active or inactive are those of the source. Calls come from the whole dose curve; as a rule, active = well fitted activation curve with a large enough effect in the repeat runs; inconclusive = weak or mixed curves; inactive = no such curve, though single readings can be large or run the other way.
Write down one outcome, taken from 1 (yes) for active, 0 (no) for inactive

Answered examples (5):
CC1(CN2CCC(n3c(=O)[nH]c4ccccc43)CC2)OCc2ccccc2-n2cccc21 (stereo not given)
0 (no)
O=C(O)c1cccc(-c2noc(-c3ccccc3F)n2)c1
0 (no)
CCCCOc1ccc(OCCCN2CCOCC2)cc1
0 (no)
CCCCCCNC(=O)n1cc(F)c(=O)[nH]c1=O
1 (yes)
CC(=O)OCC(=O)NCCCOc1cccc(CN2CCCCC2)c1
0 (no)

Turning now to a further record.
Q: What did this assay record as the result for "O=C(/C=C/c1ccc(O)c(O)c1)O[C@@H]1C[C@@](OC(=O)/C=C/c2ccc(O)c(O)c2)(C(=O)O)C[C@@H](O)[C@@H]1O" ?
A: 0 (no)

* * *

# assayed.target: Cytochrome P450 3A4 (Homo sapiens) (UniProt P08684)
# Sequence (P08684 whole entry, looked up): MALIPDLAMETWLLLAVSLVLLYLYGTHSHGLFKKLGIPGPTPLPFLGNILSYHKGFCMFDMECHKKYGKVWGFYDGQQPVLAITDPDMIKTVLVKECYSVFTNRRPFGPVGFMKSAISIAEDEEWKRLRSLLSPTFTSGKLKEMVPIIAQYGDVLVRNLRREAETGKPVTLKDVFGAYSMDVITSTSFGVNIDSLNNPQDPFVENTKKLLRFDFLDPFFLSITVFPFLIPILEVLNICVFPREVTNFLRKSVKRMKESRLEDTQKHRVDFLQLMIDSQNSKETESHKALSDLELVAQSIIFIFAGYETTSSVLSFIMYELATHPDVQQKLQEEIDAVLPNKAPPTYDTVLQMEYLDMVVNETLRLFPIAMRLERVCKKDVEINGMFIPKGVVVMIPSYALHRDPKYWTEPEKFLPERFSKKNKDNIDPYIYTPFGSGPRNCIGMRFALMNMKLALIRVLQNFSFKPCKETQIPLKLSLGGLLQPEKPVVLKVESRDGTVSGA
# experiment: Cytochrome P450 Family 3 Subfamily A Member 4 (CYP3A4) small molecule antagonists: luciferase reporter qHTS assay (AID 1671201); note: nearly all actives have a fitted effect of over 50% in size
# particulars: P450-Glo CYP3A4 enzyme, luciferin luminescence, 1 h; series mostly up to 115 µM
Records with an inconclusive call do not appear. Activity calls are given as the source filed them. Calls come from the whole dose curve; as a rule, active = well fitted inhibition curve with a large enough effect in the repeat runs; inconclusive = weak or mixed curves; inactive = no such curve, though single readings can be large or run the other way.
Write down one outcome, taken from active, inactive

C=C(C)C(=O)OCCOCCOC(=O)C(=C)C
inactive
CC1(C)[C@H](C(=O)O)N2C(=O)C[C@H]2S1(=O)=O
inactive
C=C(C)CCCC(C)CCO (stereo not given)
active

Q: What did this assay record as the result for "CC[N+](CC)(CCNC(=O)C(=O)NCC[N+](CC)(CC)Cc1ccccc1Cl)Cc1ccccc1Cl" ?
A: inactive

Q: What did this assay record as the result for "C=C/C(C)=C/C/C=C(\C)CCC=C(C)C" ?
A: active

* * *

# experiment: qHTS assay for small molecule disruptors of the mitochondrial membrane potential (AID 720635)
# particulars: HepG2 mitochondrial membrane potential, Mito-MPS dye ratio; series mostly up to 83.2 µM
Inconclusive results are not listed. Calls of active or inactive are those of the source. Calls follow the shape of the dose curve; as a rule, active = well fitted inhibition curve with a large enough effect in the signal ratio in the repeat runs; inconclusive = weak or mixed curves, or effect the other way; inactive = flat fitted curve, though single readings scatter; the % refers to the signal ratio.
Write down one outcome, taken from Y for active, N for inactive

Answered examples (5):
O=C(O)CCc1nc(-c2ccccc2)c(-c2ccccc2)o1
N
C/C=C(/C(=C/C)c1ccc(O)cc1)c1ccc(O)cc1
Y
Cc1cc(O)ccc1O
N
C=C1c2cccc(O)c2C(O)=C2C(=O)[C@]3(O)C(O)=C(C(N)=O)C(=O)[C@@H](N(C)C)[C@@H]3[C@@H](O)[C@H]12
N
C[C@@H]1CC(=O)NN=C1c1ccc(NN=C(C#N)C#N)cc1
Y

Q: What did this assay record as the result for "Cc1[nH]cnc1CN1CCc2c(c3ccccc3n2C)C1=O" ?
A: N

Q: What did this assay record as the result for "FC(F)(F)c1ccccc1Cl" ?
A: N

Q: What did this assay record as the result for "CC(C)(C)C(=O)C(=O)O" ?
A: N

Q: What did this assay record as the result for "Cc1cc(=O)c2c(O)c3c(O)cc(=O)c4c3c3c(cc(O)c1c23)C(C)(C)C=4O" ?
A: Y

Q: What did this assay record as the result for "O=C=Nc1ccc(Cl)c(Cl)c1" ?
A: Y

Q: What did this assay record as the result for "Cc1ccc(CO)cc1" ?
A: N

Q: What did this assay record as the result for "CCCC(=O)C(=O)O" ?
A: N

Q: What did this assay record as the result for "CC1=Nc2ccc3ccccc3c2C1(C)C" ?
A: Y

Q: What did this assay record as the result for "O=C1CCCCCCCCCCOCCCCO1" ?
A: N

Q: What did this assay record as the result for "O=[N+]([O-])c1cc(C2CCCCC2)c(O)c([N+](=O)[O-])c1" ?
A: Y

Q: What did this assay record as the result for "CCCCCCCCN" ?
A: N

Q: What did this assay record as the result for "O=C=Nc1cccc(C(F)(F)F)c1" ?
A: Y

Q: What did this assay record as the result for "Clc1cc(Cl)nc(Cl)n1" ?
A: N

Q: What did this assay record as the result for "CCOC(=O)c1ccc(OCCN2C[C@H](O)[C@@H](O)[C@H](O)[C@H]2CO)cc1" ?
A: N

Q: What did this assay record as the result for "CN1C(C(=O)Nc2ccccn2)=C(O)c2sccc2S1(=O)=O" ?
A: Y

Q: What did this assay record as the result for "C=C(C)C(=O)OCCOCCOC(=O)C(=C)C" ?
A: N
